The reported measurements were obtained from patent US20240383993A1.

target: T1, cynomolgus 4-1BB overexpressed on CHO-K1 cells (cynomolgus, UniProt A9YYE7 24-254); assay: flow cytometry on CHO-K1/Cyno-41BB cells, anti-human Fc-Alexa Fluor 633
T1 construct: whole, on cells; also called CHO-K1/Cyno-41BB; cell surface cyno 4-1BB
T1 sequence (A9YYE7 entry or part of it): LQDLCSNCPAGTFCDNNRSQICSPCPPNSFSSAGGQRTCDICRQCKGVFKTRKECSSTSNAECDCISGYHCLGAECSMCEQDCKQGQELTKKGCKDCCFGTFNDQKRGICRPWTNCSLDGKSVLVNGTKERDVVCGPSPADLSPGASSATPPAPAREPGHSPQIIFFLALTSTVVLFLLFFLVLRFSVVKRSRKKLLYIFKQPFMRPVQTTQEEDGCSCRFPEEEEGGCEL
Exercise: for every item that follows, state its recorded Max (MFI).
Numbers only here, please. The scale is MFI.

Query string: Please give the measured Max (MFI) for this binder: VV02-1LP-263 huNb_3_2 (Fc fusion, not shown: a dimerising Fc or GST, detection by anti-human Fc) VHH: QVQLVESGGGLVKPGGSLRLSCAASGFTFSSSAMSWARQAPGKGFEWVSGIYSGGSTYYTESVKDRFTISRDNAKNSLYLQMNSLRPEDTAVYYCATWGTLRFGVWAEYDHWGQGTQVTVSS
Result string: 128000

Query string: Please give the measured Max (MFI) for this binder: VV02-1LP-263 huNb_1_3 (Fc fusion, not shown: a dimerising Fc or GST, detection by anti-human Fc) VHH: EVQLLESGGGLVQPGGSLRLSCAASGFTFSSSAMSWARQTPGKGFEWVSGIYSGGSTYYTESVKDRFTISRDNSKNTVYLQMNSLKPEDTAVYYCATWGTLRFGVWAEYDHWGQGTQVTVSS
Result string: 134000

Query string: Please give the measured Max (MFI) for this binder: VV02-1LP-263 huNb_1_2 (Fc fusion, not shown: a dimerising Fc or GST, detection by anti-human Fc) VHH: EVQLLESGGGLVQPGGSLRLSCAASGFTFSSSAMSWARQAPGKGLEWVSGIYSGGSTYYTESVKDRFTISRDNSKNTVYLQMNSLKPEDTAVYYCATWGTLRFGVWAEYDHWGQGTLVTVSS
Result string: 99600

Query string: Please give the measured Max (MFI) for this binder: VV02-1LP-263 huNb_3_3 (Fc fusion, detection by anti-human Fc; not shown: Fc part, implied only by the anti-human Fc secondary antibody) VHH: QVQLVESGGGLVQPGGSLRLSCAASGFTFSSSAMSWARQAPGKGFEWVSGIYSGGSTYYTESVKDRFTISRDNAKNSVYLQMNSLKPEDTAVYYCATWGTLRFGVWAEYDHWGQGTQVTVSS
Result string: 149000

Query string: Please give the measured Max (MFI) for this binder: VV02-1LP-263 huNb_2_3 (Fc fusion, not shown: a dimerising Fc or GST, detection by anti-human Fc) VHH: EVQLVESGGGLVQPGGSLRLSCAASGFTFSSSAMSWARQAPGKGFEWVSGIYSGGSTYYTESVKDRFTISRDNAKNTVYLQMNSLKPEDTAVYYCATWGTLRFGVWAEYDHWGQGTLVTVSS
Result string: 130000

Query string: Please give the measured Max (MFI) for this binder: VV02-1LP-263 huNb_2_2 (Fc fusion, not shown: a dimerising Fc or GST, detection by anti-human Fc) VHH: EVQLVESGGGLVQPGGSLRLSCAASGFTFSSSAMSWARQAPGKGLEWVSGIYSGGSTYYTESVKDRFTISRDNAKNTLYLQMNSLRPEDTAVYYCATWGTLRFGVWAEYDHWGQGTLVTVSS
Result string: 86400
